B1: Receptor-interacting serine/threonine-protein kinase 2, residues 438 to 518; numbered along this chain, O43353 (parent)
chain: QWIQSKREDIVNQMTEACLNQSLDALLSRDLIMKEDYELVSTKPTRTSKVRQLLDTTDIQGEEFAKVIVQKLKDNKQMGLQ

- Variants of: B1
- test protocol: abundance fitness (aPCA) (normalised: wild type 0, dead -1); higher = more abundant; growth selection in yeast, the domain comes from the species named
- condition: Homo sapiens
variants and their reported abundance fitness
measurement label: abundance fitness

- QWIQSKREDIVNQMTEACLNQSLDALLSRDLIMKEDYELVSQKPTRTSKVRQLLDTTDIQGEEFAKVIVQKLKDNKQMGLQ [T42Q]: 0.207
- QWIQSKREDIVNQMTEACLNQSLDALLSRDLIMKEDYELVSTKPTRTSKVRQLLSTTDIQGEEFAKVIVQKLKDNKQMGLQ [D55S]: -0.153
- QWIQSKREDIVNQMTEACLNQSLDALLSRDLIMKEEYELVSTKPTRTSKVRQLLDTTDIQGEEFAKVIVQKLKDNKQMGLQ [D36E]: -0.147
- QWIQSKREDIVNQMTEACLNQSLDALLSRDLIMKEDYELVSTKPTRTSKVRQLLTTTDIQGEEFAKVIVQKLKDNKQMGLQ [D55T]: -0.313
- QWIQSKREDIVNQMTEACLNQSLDALLSRDLIMKEDYELVSTKPTRTSKVRQLLDETDIQGEEFAKVIVQKLKDNKQMGLQ [T56E]: -0.332
- QWIQSKREDIVNQMTEACLNQSLDALLSRDLIMKEDYELVSTKPTRTSKVRQLLDYTDIQGEEFAKVIVQKLKDNKQMGLQ [T56Y]: 0.046
- QWIQSKREDIVNQMTEACLNQSLDALLSRDLIMKEDYELVSTKPRRTSKVRQLLDTTDIQGEEFAKVIVQKLKDNKQMGLQ [T45R]: -0.879
- QWIQSKREDIVNQMTEACLNQSLDALLSRDLIMKEDYELVSTKPTRTSKVRQLLDTTDIQGEEFAKVIVWKLKDNKQMGLQ [Q70W]: -0.645
- QWIQSKREDIVNQMTEACLNQSLDALLSRDLIMKEDYELVSTKPTRTSKVRQLLDTTDIQGEEFAKVIVIKLKDNKQMGLQ [Q70I]: -0.614
- QWIQSKREDIVNQMTEACLNQSLDALLSRDLIMKEDYELVSTKPTRTSKVRQLWDTTDIQGEEFAKVIVQKLKDNKQMGLQ [L54W]: -1.08
- QWIQSKREDIVNQMTEACLNQSLDALLSRDLIMKEDYELVSTKPTRDSKVRQLLDTTDIQGEEFAKVIVQKLKDNKQMGLQ [T47D]: -0.152
